Test: AUC (0 to infinity) in Sprague-Dawley rat at 10 mg/kg, iv measured upto 12 hrs by mass spectrometry
Assay type: ADME, organism-based
Conditions: in vivo
quantity-kind: AUC(0-inf) (ng·h/mL)

P. CC(=O)[C@]1(Cc2ccc(O)c(CC=C(C)C)c2)OC(=O)C(O)=C1c1ccc(O)cc1
Q. COC(=O)[C@]1(Cc2ccc(O)c(CC=C(C)C)c2)OC(=O)C(O)=C1c1ccc(O)cc1
Min AUC(0-inf)? P | Q Lab note: record the label of whichever item you select.
Q
(Q: 27.8 ng·h/mL, P: 4120 ng·h/mL)

###

Assay: Cmax in Sprague-Dawley rat at 40 mg/kg, po measured upto 12 hrs by mass spectrometry
Type: ADME, organism-based
Conditions: in vivo
quantity-kind: Cmax (ng/mL)

P. CC(=O)[C@]1(Cc2ccc(O)c(CC=C(C)C)c2)OC(=O)C(O)=C1c1ccc(O)cc1
Q. COC(=O)[C@]1(Cc2ccc(O)c(CC=C(C)C)c2)OC(=O)C(O)=C1c1ccc(O)cc1
Which numeric Cmax is bigger, that of P or that of Q ? Lab note: record the label of whichever item you select.
P
(P: 6110 ng/mL, Q: 10.8 ng/mL)
